- TARGET_SYSTEM: JAK2 (recombinant purified GST-tagged catalytic domain) (Homo sapiens (Human))
- PROTOCOL_DESCRIPTION: Jak Biochemical HTRF Assay (JAK2)
- COND: [ATP] 8.5 μM
pIC50: −log10 of the molar value.
MEASUREMENT_KIND: pIC50

[P] CC(C)OC(=O)C(C)(C)C(O)(c1ccc(Nc2nn([C@]3(CC#N)CC[C@@H](C(=O)OC(C)(C)C)OC3)c3cc[nH]c(=O)c23)cc1)C(F)(F)F (single isomer, unassigned) [Example 5-163]
[Q] N#CC[C@]1(n2nc(Nc3ccc(C(N)C(F)(F)F)cc3)c3c(=O)[nH]ccc32)CCCC[C@H]1F (single isomer, unassigned) [Example 5-176]
Record comparison, field pIC50: mark the lower of P and Q . Answer with the label corresponding to your selection. P
(P: 8.66, Q: 10.05)

[a] CN(C)S(=O)(=O)c1ccc(Nc2nn(C3(CC#N)CCN(C(=O)CN4CCCC4=O)CC3)c3cc[nH]c(=O)c23)cc1
[b] CN(C)S(=O)(=O)c1ccc(Nc2nn(C3(CC#N)CCN(Cc4ncco4)CC3)c3cc[nH]c(=O)c23)cc1
[c] CC(C)(C)OC(=O)N1CCC(CC#N)(n2nc(Nc3ccc([C@]4(C(F)(F)F)CCCN4)cc3)c3c(=O)[nH]ccc32)CC1 (single isomer, unassigned)
Your job: order these 3 records by pIC50, ascending. Give the labels in the order requested. a, b, c

[A] CC(C)N1Cc2cc(Nc3nn(C4(CC#N)CCCC4)c4cc[nH]c(=O)c34)ccc2C1=O
[B] CN(C)S(=O)(=O)c1ccc(Nc2nn(C3(CC#N)CCN(C(=O)c4ccc(Cl)cc4)CC3)c3cc[nH]c(=O)c23)cc1
[C] CN(C)S(=O)(=O)c1ccc(Nc2nn([C@]3(CC#N)COCC[C@@H]3F)c3cc[nH]c(=O)c23)cc1 (single isomer, unassigned)
[D] COC(=O)[C@@H]1CC[C@@](CC#N)(n2nc(Nc3ccc(S(C)(=O)=O)cc3)c3c(=O)[nH]ccc32)CO1 (racemic) [Example 5-32]
Your job: order these 4 records by pIC50, ascending. Give the labels in the order requested. B, A, C, D
(B: 7.92, A: 8.45, C: 8.74, D: 9.06)

----------
- TARGET_SYSTEM: JAK2 (recombinant purified GST-tagged catalytic domain) (Homo sapiens (Human), UniProt O60674)
- Sequence (O60674 849-1124): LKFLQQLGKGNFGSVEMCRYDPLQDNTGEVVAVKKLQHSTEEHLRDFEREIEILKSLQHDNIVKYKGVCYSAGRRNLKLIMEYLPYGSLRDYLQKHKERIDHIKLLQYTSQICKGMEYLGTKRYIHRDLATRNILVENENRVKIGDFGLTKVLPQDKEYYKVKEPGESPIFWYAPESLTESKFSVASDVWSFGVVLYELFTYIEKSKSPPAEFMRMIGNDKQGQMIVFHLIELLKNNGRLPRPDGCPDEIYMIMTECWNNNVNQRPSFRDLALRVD
- PROTOCOL_DESCRIPTION: Jak Biochemical HTRF Assay (JAK2)
- COND: [ATP] 8.5 μM
pIC50: −log10 of the molar value.
MEASUREMENT_KIND: pIC50

Worked cases, pIC50 given:
MOLECULE	pIC50
CS(=O)(=O)c1ccc(Nc2nn(C3(CC#N)CCN(c4ccc(Br)cn4)CC3)c3cc[nH]c(=O)c23)cc1	9.39
CO[C@H]1CCN(C(=O)c2ccc(Nc3nn([C@]4(CC#N)CCCOC4)c4cc[nH]c(=O)c34)cc2C)C1	8.91
CC(c1c(F)cccc1F)N1CCC(CC#N)(n2nc(Nc3ccc(S(=O)(=O)N(C)C)cc3)c3c(=O)[nH]ccc32)CC1 (stereo not drawn)	8.49
CC(C)(C)N[C@@H](c1ccc(Nc2nn([C@@]3(CC#N)CCOC[C@H]3F)c3cc[nH]c(=O)c23)cc1)C(F)(F)F (single isomer, unassigned)	8.32
CC(C)(C)NS(=O)(=O)c1ccc(Nc2nn(C3(CC#N)CCN(C(=O)C(C)(F)F)CC3)c3cc[nH]c(=O)c23)cc1	9.72
CC(C)NC(c1ccc(Nc2nn([C@]3(CC#N)CC[C@@H](C(=O)OC(C)(C)C)OC3)c3cc[nH]c(=O)c23)cc1)C(F)(F)F (single isomer, unassigned) [Example 5-210]	9.29
N#CC[C@@]1(n2nc(Nc3ccc(S(=O)(=O)C4CCCC4)cc3)c3c(=O)[nH]ccc32)CCCOC1	9.28

[A] CO[C@H](c1ccc(Nc2nn([C@]3(CC#N)CC[C@@H](C(=O)OC(C)(C)C)OC3)c3cc[nH]c(=O)c23)cc1)C(F)(F)F (single isomer, unassigned)
[B] CN(C)S(=O)(=O)c1ccc(Nc2nn(C3(CC#N)CCN(Cc4cccc(F)c4)CC3)c3cc[nH]c(=O)c23)cc1
[C] CN(C)C(=O)[C@@H]1CC[C@@](CC#N)(n2nc(Nc3ccc(Cl)cc3)c3c(=O)[nH]ccc32)CO1
[D] CC(C)(C)OC(=O)[C@H]1CC[C@@](CC#N)(n2nc(Nc3ccc([C@H](N)C(F)(F)F)cc3)c3c(=O)[nH]ccc32)CO1 (single isomer, unassigned)
[E] CC(C)NC(C)(C)c1ccc(Nc2nn([C@@]3(CC#N)CCCC[C@H]3F)c3cc[nH]c(=O)c23)cc1
Your job: order these 5 records by pIC50, ascending. Give the labels in the order requested. D, C, A, B, E
(D: 7.52, C: 8.60, A: 9.05, B: 9.28, E: 10.22)
